biological target: Kras and SOS1 (biotin-tagged human Kras loaded with GDP, His-tagged human SOS1) (Homo sapiens, UniProt P01116, G12D); construct: made in house; host or cells: E. coli (stated for Kras only); experiment: Protein-protein interaction inhibition between Kras and SOS1 (KrasGl2D-SOS PPI) using AlphaScreen; format: binding; conditions: AlphaScreen; biotin-tagged human Kras loaded with GDP, His-tagged human SOS1; read-out: KRAS G12D-SOS PPI IC50
Sequence (P01116 1-188 isoform P01116-2 G12D): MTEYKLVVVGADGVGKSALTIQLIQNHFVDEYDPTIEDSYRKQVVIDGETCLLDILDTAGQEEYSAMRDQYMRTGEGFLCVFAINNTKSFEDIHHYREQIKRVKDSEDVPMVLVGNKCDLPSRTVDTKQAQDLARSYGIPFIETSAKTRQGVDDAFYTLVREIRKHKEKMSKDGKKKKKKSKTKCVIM
Starred links: 1 amine or outer side, 2 acyl side, 3 side chain; linkers in the order of their positions; H or OH if unused. Positions of bridges follow the written chain, without caps; N, C: chain ends. Non-standard residues stand in square brackets, D forms with d. Residues, ends and D or L forms follow the SMILES beside them. *: point of attachment. hPhe(3-Cl-4-CF3) = N[C@@H](CCc1ccc(C(F)(F)F)c(Cl)c1)C(=O)O; NMePhe(3-Br) = CN[C@@H](Cc1cccc(Br)c1)C(=O)O; NMePhe(4-Me) = CN[C@@H](Cc1ccc(C)cc1)C(=O)O; NMePhe(4-I) = CN[C@@H](Cc1ccc(I)cc1)C(=O)O; NMedβ3hAla = C[C@H](CC(=O)[*:2])N(C)[*:1]; NMeGly(cPent) = CN[C@H](C(=O)O)C1CCCC1; NMeY = CN[C@@H](Cc1ccc(O)cc1)C(=O)O; NMeCha = CN[C@@H](CC1CCCCC1)C(=O)O; Pro(4-oxo) = O=C1CN[C@H](C(=O)O)C1; NMehLeu = CN[C@@H](CCC(C)C)C(=O)O; NMeChg = CN[C@H](C(=O)O)C1CCCCC1; NMeI = CC[C@H](C)[C@H](NC)C(=O)O; NMeD = CN[C@@H](CC(=O)O)C(=O)O; NMeL = CN[C@@H](CC(C)C)C(=O)O; NMeV = CN[C@H](C(=O)O)C(C)C; d(β3hA) = C[C@@H](N)CC(=O)O; NMeA = CN[C@@H](C)C(=O)O; Piperidide = C1CCN(*)CC1; Ac5c = NC1(C(=O)O)CCCC1; Aze = O=C(O)[C@@H]1CCN1; Sar = CNCC(=O)O
measured-metric: IC50 (nM)
Please respond with the number in nM and leave the unit unwritten.

The following compounds have reported results that may help.
# compound, IC50, nM
records = [
    ("CC[C@H](C)[C@@H]1NC(=O)[C@H](CC(C)C)N(C)C(=O)C[C@@H](C(=O)N2CCCCC2)N(C)C(=O)[C@H](C2CCCCC2)N(C)C(=O)C2(CCCC2)NC(=O)[C@@H]2CC(=O)CN2C(=O)[C@H](CCc2ccc(C(F)(F)F)c(Cl)c2)NC(=O)CN(C)C(=O)[C@H](CC2CCCCC2)N(C)C(=O)CN(C)C(=O)CN(C)C1=O [Compound 1022] ([NMeL]I[Sar][Sar][NMeCha][Sar][hPhe(3-Cl-4-CF3)][Pro(4-oxo)][Ac5c][NMeChg][NMeD]-Piperidide; lactam N-11)", 0.42),
    ("CC[C@H](C)[C@@H]1NC(=O)[C@H](CC(C)C)N(C)C(=O)C[C@@H](C)N(C)C(=O)[C@H](C(C)C)N(C)C(=O)C2(CCCC2)NC(=O)[C@@H]2CCCN2C(=O)[C@H](CCc2ccc(C(F)(F)F)c(Cl)c2)NC(=O)CN(C)C(=O)[C@H](Cc2ccc(OC)cc2)N(C)C(=O)CN(C)C(=O)CN(C)C1=O [Compound 1551] (cyclo([Ac5c][NMeV][NMedβ3hAla][NMeL]I[Sar][Sar][NMeY](Me)[Sar][hPhe(3-Cl-4-CF3)]P))", 4.9),
    ("CC[C@H](C)[C@@H]1NC(=O)[C@H](CC(C)C)N(C)C(=O)C[C@@H](C)NC(=O)[C@H](C(C)C)N(C)C(=O)C2(CCCC2)NC(=O)[C@@H]2CCCN2C(=O)[C@H](CCc2ccc(C(F)(F)F)c(Cl)c2)NC(=O)CN(C)C(=O)[C@H](Cc2cccc(Br)c2)N(C)C(=O)CN(C)C(=O)CN(C)C1=O [Compound 1587] (cyclo([Ac5c][NMeV][d(β3hA)][NMeL]I[Sar][Sar][NMePhe(3-Br)][Sar][hPhe(3-Cl-4-CF3)]P))", 31),
    ("CC[C@H](C)[C@@H]1NC(=O)[C@H](CCC(C)C)N(C)C(=O)C[C@@H](C(=O)N(C)C)N(C)C(=O)[C@H](C2CCCC2)N(C)C(=O)C2(CCCC2)NC(=O)[C@@H]2CCCN2C(=O)[C@H](CCc2ccc(C(F)(F)F)c(Cl)c2)NC(=O)CN(C)C(=O)[C@H](Cc2ccc(C)cc2)N(C)C(=O)[C@@H]2CCN2C(=O)[C@H](C)NC1=O [Compound 303] ([NMehLeu]IA[Aze][NMePhe(4-Me)][Sar][hPhe(3-Cl-4-CF3)]P[Ac5c][NMeGly(cPent)][NMeD]-NMe2; lactam N-11)", 0.68),
]

Tell us which IC50 value is on record for CC[C@H](C)[C@@H]1NC(=O)[C@H](CC(C)C)N(C)C(=O)C[C@@H](C(=O)N(C)C)N(C)C(=O)[C@H]([C@@H](C)CC)N(C)C(=O)C2(CCCC2)NC(=O)[C@H](Cc2ccc(I)cc2)N(C)C(=O)[C@H](CCc2ccc(C(F)(F)F)c(Cl)c2)NC(=O)CN(C)C(=O)[C@H](Cc2ccc(C)cc2)N(C)C(=O)[C@@H]2CCN2C(=O)[C@H](C)N(C)C1=O [Compound 1888] ([NMeL]I[NMeA][Aze][NMePhe(4-Me)][Sar][hPhe(3-Cl-4-CF3)][NMePhe(4-I)][Ac5c][NMeI][NMeD]-NMe2; lactam N-11)
53

----------
biological target: Kras and SOS1 (biotin-tagged human Kras loaded with GDP, His-tagged human SOS1) (Homo sapiens, UniProt P01116, G12D); construct: made in house; host or cells: E. coli (stated for Kras only); assay: Protein-protein interaction inhibition between Kras and SOS1 (KrasGl2D-SOS PPI) using AlphaScreen; format: binding; conditions: AlphaScreen; biotin-tagged human Kras loaded with GDP, His-tagged human SOS1; read-out: KRAS G12D-SOS PPI IC50
Positions of bridges follow the written chain, without caps; N, C: chain ends. Non-standard residues stand in square brackets, D forms with d. Residues, ends and D or L forms follow the SMILES beside them. hPhe(3-Cl-4-CF3) = N[C@@H](CCc1ccc(C(F)(F)F)c(Cl)c1)C(=O)O; NMePhe(4-Me) = CN[C@@H](Cc1ccc(C)cc1)C(=O)O; NMeI = CC[C@H](C)[C@H](NC)C(=O)O; NMeD = CN[C@@H](CC(=O)O)C(=O)O; NMeL = CN[C@@H](CC(C)C)C(=O)O; NMeA = CN[C@@H](C)C(=O)O; Aze = O=C(O)[C@@H]1CCN1; Sar = CNCC(=O)O
measured-metric: pIC50
pIC50 is a log-scale quantity: -log10 of the concentration expressed in molar.

Tell us which pIC50 value is on record for CC[C@H](C)[C@@H]1NC(=O)[C@H](CC(C)C)N(C)C(=O)C[C@@H](C(=O)N(C)C)N(C)C(=O)[C@H]([C@@H](C)CC)N(C)C(=O)[C@H](C)NC(=O)[C@H](C)N(C)C(=O)[C@H](CCc2ccc(C(F)(F)F)c(Cl)c2)NC(=O)CN(C)C(=O)[C@H](Cc2ccc(C)cc2)N(C)C(=O)[C@@H]2CCN2C(=O)[C@H](C)N(C)C1=O [Compound 715] ([NMeL]I[NMeA][Aze][NMePhe(4-Me)][Sar][hPhe(3-Cl-4-CF3)][NMeA]A[NMeI][NMeD]-NMe2; lactam N-11)
8.21
